src = ChEMBL document CHEMBL1153113

measurement_description: Tmax in rat at 10 mg/kg, po
Type: ADME, organism-based
Parameters: dose 10 mg/kg, route oral
measurement_context: in vivo
measurement_kind: Tmax

// query For COC(=O)N(C)c1cc2c(NCc3ccc(OC)c(Cl)c3)ncnc2c(CCO)c1OC.Cl , what is its reported Tmax?
// result 12 min

---

Assignment: determine reported pIC50 for the given molecules.
target_of_assay: Rod cGMP-specific 3',5'-cyclic phosphodiesterase subunit alpha (Bos taurus)
Sequence (P11541 whole entry): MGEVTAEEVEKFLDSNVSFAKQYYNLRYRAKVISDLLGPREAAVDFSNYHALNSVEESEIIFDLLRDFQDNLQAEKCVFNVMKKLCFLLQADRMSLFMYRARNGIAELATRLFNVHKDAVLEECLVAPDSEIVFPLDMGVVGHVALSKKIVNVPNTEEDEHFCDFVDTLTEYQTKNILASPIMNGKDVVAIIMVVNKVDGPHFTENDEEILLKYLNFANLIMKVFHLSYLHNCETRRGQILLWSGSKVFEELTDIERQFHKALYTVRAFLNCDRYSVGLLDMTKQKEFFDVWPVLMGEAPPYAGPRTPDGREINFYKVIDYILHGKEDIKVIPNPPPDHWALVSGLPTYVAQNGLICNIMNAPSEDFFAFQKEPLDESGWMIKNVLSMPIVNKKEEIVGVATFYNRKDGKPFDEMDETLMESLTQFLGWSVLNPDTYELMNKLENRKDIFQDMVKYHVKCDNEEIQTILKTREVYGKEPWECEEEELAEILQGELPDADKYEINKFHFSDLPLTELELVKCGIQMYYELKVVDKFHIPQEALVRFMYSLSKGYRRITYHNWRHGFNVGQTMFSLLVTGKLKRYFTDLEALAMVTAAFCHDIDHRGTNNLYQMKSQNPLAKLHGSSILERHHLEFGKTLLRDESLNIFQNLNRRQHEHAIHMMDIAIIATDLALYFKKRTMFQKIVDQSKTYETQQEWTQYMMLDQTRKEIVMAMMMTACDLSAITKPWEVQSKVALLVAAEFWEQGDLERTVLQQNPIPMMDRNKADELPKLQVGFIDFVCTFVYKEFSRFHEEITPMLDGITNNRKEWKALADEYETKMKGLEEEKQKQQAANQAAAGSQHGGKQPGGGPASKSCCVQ
measurement_description: Inhibition of bovine retina PDE6
Friendly reminder that pIC50 comes from taking -log10 of the concentration in mol/L.

// query Name the reported pIC50 value associated with the molecule CCC(=O)N(C)c1cc2c(NCc3ccc(OC)c(Cl)c3)ncnc2c(CCO)c1OC
// result 6.49

// query GET /values?readout=pIC50&item= COC(=O)N(C)c1cc2c(NCc3ccc(OC)c(Cl)c3)ncnc2c(CCO)c1OC
// result 6.85

// query What pIC50 value was documented for this molecule, COc1ccc(CNc2ncnc3c(CCO)c(OC)c(N(C)C(=O)C4CC4)cc23)cc1Cl ?
// result 6.47

// query I would be grateful if you could share the reported pIC50 for COc1ccc(CNc2ncnc3c(CCO)c(OC)c(N(C)C(=O)C(C)C)cc23)cc1Cl .
// result 5.96
